Each recorded value in this set is attributed to the supplement of paper PMC7877785.

Assay: self-splicing fitness, log relative to wild type (ln ratio); higher = more splicing; Tetrahymena group I intron in knt gene, E. coli kanamycin selection, DiMSum; sequences stand for … in CUCUCU…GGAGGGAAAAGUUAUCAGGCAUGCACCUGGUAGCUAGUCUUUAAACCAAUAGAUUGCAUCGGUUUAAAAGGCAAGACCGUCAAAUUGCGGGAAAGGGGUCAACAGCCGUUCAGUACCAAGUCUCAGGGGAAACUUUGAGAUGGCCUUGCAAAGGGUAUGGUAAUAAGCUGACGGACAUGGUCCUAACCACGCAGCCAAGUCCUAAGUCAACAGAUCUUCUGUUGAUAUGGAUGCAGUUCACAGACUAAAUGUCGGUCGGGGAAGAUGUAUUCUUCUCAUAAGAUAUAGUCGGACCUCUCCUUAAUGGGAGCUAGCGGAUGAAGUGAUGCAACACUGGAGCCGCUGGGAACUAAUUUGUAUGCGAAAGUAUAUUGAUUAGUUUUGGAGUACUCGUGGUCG;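 note: selection with 25 µg/mL kanamycin versus none on LB agar overnight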
Settings: 37 °C
Measured self-splicing fitness (ln) accompanies every entry in the list below.

Example results:
GGACAGCAAUAUUACGCGAA | -0.612
AUAGAGCAAUAUUACGGCCA | -1.02
GUAAAGCAAUAUUACGCCCG | -0.247
GAGCAGCAAUAUUACGCACA | -0.415
UAGUAGCAAUAUUACGGUUA | 0.03

Read the next record carefully.
Lookup: Need self-splicing fitness (ln), item CGAGAGCAAUAUUACGGUGU
Found: -2.73

----------
Experiment: self-splicing fitness, log relative to wild type (ln ratio); higher = more splicing; Tetrahymena group I intron in knt gene, E. coli kanamycin selection, DiMSum; sequences stand for … in CUCUCU…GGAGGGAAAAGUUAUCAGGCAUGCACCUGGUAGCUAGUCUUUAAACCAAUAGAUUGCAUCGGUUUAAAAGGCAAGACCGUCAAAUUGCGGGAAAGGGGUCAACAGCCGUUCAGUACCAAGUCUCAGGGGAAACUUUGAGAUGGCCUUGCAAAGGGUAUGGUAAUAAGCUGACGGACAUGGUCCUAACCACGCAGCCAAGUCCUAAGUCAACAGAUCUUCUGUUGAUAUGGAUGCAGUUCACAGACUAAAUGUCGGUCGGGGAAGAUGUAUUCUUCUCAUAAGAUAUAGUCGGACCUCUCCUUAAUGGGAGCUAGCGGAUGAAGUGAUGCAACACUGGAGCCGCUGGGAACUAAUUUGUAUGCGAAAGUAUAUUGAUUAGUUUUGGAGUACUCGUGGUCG
Details: 37 °C
// label = YES if self-splicing fitness (ln) is not less than -2, otherwise NO

UCAGAGCAAUAUUACGUGAA | YES
GUAGAGCAAUAUUACGGAUU | YES
CCGCAGCAAUAUUACGCAUU | NO
UUAAAGCAAUAUUACGCGGA | YES
ACAGAGCAAUAUUACGCUUG | YES

Lookup: self-splicing fitness (ln) >= -2 for CACCAGCAAUAUUACGUCGA ?
Found: YES

Lookup: Say whether CCAGAGCAAUAUUACGAAUA shows self-splicing fitness (ln) of -2 or more.
Found: NO

Lookup: // inclusive: self-splicing fitness (ln) at least -2? input: ACUCAGCAAUAUUACGCACC
Found: YES

Lookup: Item CACCAGCAAUAUUACGGAGU with self-splicing fitness (ln) of -2 or above?
Found: NO

Lookup: Would you say UGCUAGCAAUAUUACGGAUG shows self-splicing fitness (ln) at minimum -2?
Found: YES

Lookup: Is it the case that ACUGAGCAAUAUUACGCUUA has self-splicing fitness (ln) reaching or exceeding -2?
Found: YES

Lookup: Is it the case that AGAGAGCAAUAUUACGACGA has self-splicing fitness (ln) reaching or exceeding -2?
Found: YES

Lookup: Quick check, self-splicing fitness (ln) >= -2? GGUUAGCAAUAUUACGCUGU
Found: YES

Lookup: Please check the record UGAGAGCAAUAUUACGCUCG and state if its self-splicing fitness (ln) is at or above -2.
Found: YES

Lookup: Check if self-splicing fitness (ln) >= -2 (inclusive). Item: AUGAAGCAAUAUUACGGGUG
Found: YES

Lookup: Form field: self-splicing fitness (ln) at least -2? Entry: AACCAGCAAUAUUACGUCAG
Found: YES

Lookup: Kindly determine if self-splicing fitness (ln) recorded for AUAUAGCAAUAUUACGGAAG is above or exactly -2.
Found: YES

Lookup: Hi team, for GGCUAGCAAUAUUACGGCGA , is the recorded self-splicing fitness (ln) at or above -2?
Found: YES

Lookup: Is it the case that AGGAAGCAAUAUUACGUUAG has self-splicing fitness (ln) reaching or exceeding -2?
Found: NO

Lookup: hey, is self-splicing fitness (ln) for this one >= -2? GUUUAGCAAUAUUACGACCA
Found: YES

Lookup: Does the reported self-splicing fitness (ln) for AGACAGCAAUAUUACGACCA fall at or above the -2 mark?
Found: YES

Lookup: Kindly determine if self-splicing fitness (ln) recorded for UGCAAGCAAUAUUACGUCAA is above or exactly -2.
Found: YES

Lookup: Could you verify whether the entry GACGAGCAAUAUUACGGGUC shows self-splicing fitness (ln) of no less than -2?
Found: NO

Lookup: Is the recorded value of self-splicing fitness (ln) equal to or greater than -2 for this sequence? GCUAAGCAAUAUUACGUGAC
Found: YES

Lookup: Check the entry UGCGAGCAAUAUUACGCACA : does self-splicing fitness (ln) equal or exceed -2?
Found: NO

Lookup: Check the entry AUAGAGCAAUAUUACGCCCU : does self-splicing fitness (ln) equal or exceed -2?
Found: YES

Lookup: Check this sequence for self-splicing fitness (ln) at or above -2: GAAUAGCAAUAUUACGUAUC
Found: YES

----------
Assay: self-splicing fitness, log relative to wild type (ln ratio); higher = more splicing; Tetrahymena group I intron in knt gene, E. coli kanamycin selection, DiMSum; sequences stand for … in CUCUCU…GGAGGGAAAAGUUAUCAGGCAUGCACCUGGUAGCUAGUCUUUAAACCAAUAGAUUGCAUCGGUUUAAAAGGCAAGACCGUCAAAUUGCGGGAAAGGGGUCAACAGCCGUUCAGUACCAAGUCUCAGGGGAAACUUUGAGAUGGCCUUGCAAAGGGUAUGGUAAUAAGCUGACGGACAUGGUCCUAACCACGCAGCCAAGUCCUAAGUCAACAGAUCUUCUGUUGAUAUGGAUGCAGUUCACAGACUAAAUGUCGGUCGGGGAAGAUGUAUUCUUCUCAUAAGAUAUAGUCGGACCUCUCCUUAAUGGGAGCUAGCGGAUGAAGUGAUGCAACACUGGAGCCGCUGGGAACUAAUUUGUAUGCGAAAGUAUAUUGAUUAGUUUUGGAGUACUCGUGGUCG
Settings: 30 °C
# cutoff -2 applies to self-splicing fitness (ln); >= gives true (1), < gives false (0)

Worked examples, 2 sequences total:
CUCGAGCAAUAUUACGCUGC | false (0)
CUAAAGCAAUAUUACGAUAG | true (1)

Lookup: Would you say UGUUAGCAAUAUUACGUCAU shows self-splicing fitness (ln) at minimum -2?
Found: false (0)

Lookup: Does the sequence GCUUAGCAAUAUUACGUAAG have recorded self-splicing fitness (ln) that is -2 or more?
Found: false (0)

Lookup: Confirm if self-splicing fitness (ln) reported for the sequence AUACAGCAAUAUUACGGCGU is -2 or above.
Found: true (1)

----------
Experiment: self-splicing fitness, log relative to wild type (ln ratio); higher = more splicing; Tetrahymena group I intron in knt gene, E. coli kanamycin selection, DiMSum; sequences stand for … in CUCUCU…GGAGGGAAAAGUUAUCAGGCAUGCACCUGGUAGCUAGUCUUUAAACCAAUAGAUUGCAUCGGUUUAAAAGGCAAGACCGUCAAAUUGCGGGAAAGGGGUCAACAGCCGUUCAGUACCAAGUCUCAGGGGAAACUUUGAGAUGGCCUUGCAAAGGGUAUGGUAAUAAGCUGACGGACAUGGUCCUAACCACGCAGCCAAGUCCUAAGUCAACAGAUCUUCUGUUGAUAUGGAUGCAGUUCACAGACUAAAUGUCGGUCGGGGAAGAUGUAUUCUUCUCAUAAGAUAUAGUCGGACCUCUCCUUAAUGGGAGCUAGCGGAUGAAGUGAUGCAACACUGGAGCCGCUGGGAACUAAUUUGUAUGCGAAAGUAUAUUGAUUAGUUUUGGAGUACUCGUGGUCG
Conditions: 37 °C
Record met whenever self-splicing fitness (ln) is at -2 or higher; record not met when lower.

Worked examples, 3 sequences total:
ACGCAGCAAUAUUACGCAGG | met
GCCUAGCAAUAUUACGAUUC | met
GAUAAGCAAUAUUACGUGUG | met

Lookup: Reported self-splicing fitness (ln) reaches at least -2 for CUAUAGCAAUAUUACGUUCA ?
Found: not met

Lookup: API: above_or_equal(metric=self-splicing fitness (ln), cutoff=-2) for item CACGAGCAAUAUUACGUCGU
Found: not met
